System: Ishikawa cell line
Test: MTT cell proliferation assay, Ishikawa
Format: cell-based, human
Settings: Homo sapiens, Ishikawa, 48 h, read-out: IC50 (Mean ± SEM) Ishikawa
pIC50: −log10 of the molar value.
Catalogue of pIC50 readings, one per entry.
REPORTED METRIC: pIC50

INSERT INTO results (compound, reported_metric, data_value) VALUES
  ('Cc1nn(-c2ccccc2)c(O)c1C(c1ccccc1)c1c(C)nn(-c2ccccc2)c1O [3a]', 'pIC50', 4.52),
  ('Cc1nn(-c2ccccc2)c(O)c1C(c1ccc(Cl)cc1)c1c(C)nn(-c2ccccc2)c1O [3c]', 'pIC50', 4.43);

These data points were gathered from paper PMC9520760.
